measurement-kind: melting point

[Q] Returns the measured melting point for the input compound. Input: CC12CCC3C(CC=C4C=C(OCc5ccccc5)CCC43C)C1CCC2=O (stereo not given)
[A] 172 to 178 °C

[Q] What do you have for "O=C(O)[C@@H]1OC(c2ccccc2)=N[C@H]1c1ccccc1" ?
[A] 135 °C

[Q] Try COc1cc(Nc2ncnc3cc(OCC4CCCCO4)c(OC)cc23)c(OC)cc1Cl (stereo not given) next.
[A] 203 to 209 °C

[Q] Can you handle "Cc1c(F)cc(C(=O)O)cc1F" next?
[A] 153 °C

[Q] Would you mind doing "COc1ccc(-c2nc(N3CCNCC3)c3c(C)c(C#N)sc3n2)cc1" as well?
[A] 210 to 212 °C

[Q] Lookup "Cc1nn(C)cc1C(=O)Nc1ccccc1-c1ccc(F)c(Cl)c1"
[A] 177 to 180 °C

[Q] What do you have for COC1CCc2c(cc(-c3ccccc3)n2-c2ccc(O)cc2)C1 (stereo not given) ?
[A] 174 to 175 °C

[Q] Then "OCCNCCOc1ccc2cc3ccc(OCCNCCO)cc3nc2c1" ?
[A] 125 to 127 °C

[Q] # repeat for "Nc1nc(-c2ccccc2)c(-c2ccc(=O)[nH]n2)s1"
[A] > 250 °C

[Q] Now give it for "Cc1c(C(=O)O)ccc2c1OC(c1ccccc1)(c1ccccc1)O2" too.
[A] 263 to 265 °C
